- Tested on: human PBM
- TEST PROTOCOL: Cellular toxicity assay in human PBM cells
- Format: cell-based
- ASSAY SETUP: read-out: Cytotoxicity

- MOLECULAR STRING: "O=C(Nc1ccc(F)c(F)c1)c1cc(S(=O)(=O)NCc2cn(C3CC3)nn2)ccc1F"
  TARGET: "human PBM"
  CC50, µM: 64.8

----------
- TEST PROTOCOL: Cellular toxicity assay in human PBM cells
- Type: cell-based
- ASSAY SETUP: human, human PBM cells, read-out: Cytotoxicity
QUANTITY: CC50

- COMPOUND: "Cc1c(C(=O)C(=O)Nc2ccccn2)c(C)n(C)c1C(=O)Nc1ccccc1 [Compound 52]"
  REPORTED MEASUREMENT: "> 100 µM"
- COMPOUND: "C#CCNC(=O)C(=O)c1c(C)c(C(=O)Nc2ccc(F)c(C#N)c2)n(C)c1C [Compound 7b]"
  REPORTED MEASUREMENT: "> 100 µM"
- COMPOUND: "C#CCNC(=O)C(=O)c1c(C)c(C(=O)Nc2ccc(F)c(F)c2)n(C)c1C [Compound 7a]"
  REPORTED MEASUREMENT: "> 100 µM"
- COMPOUND: "C#CCNC(=O)C(=O)c1c(C)c(C(=O)Nc2cccc(S(F)(F)(F)(F)F)c2)n(C)c1C [Compound 60]"
  REPORTED MEASUREMENT: "86 µM"
- COMPOUND: "C#CCNC(=O)C(=O)c1c(C)c(C(=O)NC(C)(C)c2ccc(F)c(F)c2)n(C)c1C [Compound 56]"
  REPORTED MEASUREMENT: "> 100 µM"
- COMPOUND: "C#CCNS(=O)(=O)c1cc(C(=O)Nc2ccc(F)c(F)c2)n(C)c1 [Compound 17]"
  REPORTED MEASUREMENT: "> 100 µM"
- COMPOUND: "C#CCNC(=O)C(=O)c1c(C)c(C(=O)Nc2cccc(OC(F)(F)F)c2)n(C)c1C [Compound 55]"
  REPORTED MEASUREMENT: "> 100 µM"
- COMPOUND: "C#CCNC(=O)C(=O)c1c(C)c(C(=O)Nc2ccncc2)n(C)c1C [Compound 63]"
  REPORTED MEASUREMENT: "> 100 µM"
- COMPOUND: "Cc1c(C(=O)C(=O)NCC#Cc2nccn2C)c(C)n(C)c1C(=O)Nc1ccc(F)c(F)c1 [Compound 83]"
  REPORTED MEASUREMENT: "7 µM"
- COMPOUND: "C#CCNC(=O)C(=O)c1c(C)c(C(=O)Nc2ccc(S(F)(F)(F)(F)F)cc2)n(C)c1C [Compound 59]"
  REPORTED MEASUREMENT: "44 µM"
- COMPOUND: "Cc1c(C(=O)C(=O)Nc2ccccn2)c(C)n(C)c1C(=O)Nc1ccc(F)c(F)c1 [Compound 43]"
  REPORTED MEASUREMENT: "> 100 µM"
- COMPOUND: "O=C(Nc1ccc(F)c(F)c1)c1cc(S(=O)(=O)NCc2cn(C3CC3)nn2)ccc1F [Compound 13]"
  REPORTED MEASUREMENT: "> 100 µM"
- COMPOUND: "Cc1c(C(=O)C(=O)Nc2nc3ccccc3[nH]2)c(C)n(C)c1C(=O)Nc1ccc(F)c(F)c1 [Compound 46]"
  REPORTED MEASUREMENT: "> 100 µM"
- COMPOUND: "CCN(CC)C(=O)C(=O)c1c(C)c(C(=O)Nc2ccc(F)c(F)c2)n(C)c1C [Compound 45]"
  REPORTED MEASUREMENT: "90 µM"
- COMPOUND: "Cn1cc(C(=O)C(=O)Nc2nccs2)cc1C(=O)Nc1ccc(F)c(F)c1 [Compound 26]"
  REPORTED MEASUREMENT: "> 100 µM"
- COMPOUND: "Cc1c(C(=O)C(=O)N2CCN(C)CC2)c(C)n(C)c1C(=O)Nc1ccc(F)c(F)c1 [Compound 44]"
  REPORTED MEASUREMENT: "92 µM"
- COMPOUND: "Cc1c(C(=O)C(=O)NCc2c[nH]nn2)c(C)n(C)c1C(=O)Nc1ccc(F)c(F)c1 [Compound 38]"
  REPORTED MEASUREMENT: "> 100 µM"

----------
- TEST PROTOCOL: Cellular toxicity assay in human PBM cells
- Format: cell-based
- ASSAY SETUP: human, read-out: Cytotoxicity

- MOLECULAR STRING: "C=CCn1cc(CNC(=O)C(=O)c2c(C)c(C(=O)Nc3ccc(F)c(F)c3)n(C)c2C)nn1"
  CC50 (µM): 60.5

----------
- TEST PROTOCOL: Cellular toxicity assay in HepG2 cells
- Format: cell-based
- ASSAY SETUP: human, read-out: Cytotoxicity
QUANTITY: CC50

- COMPOUND: "Cn1cc(C(=O)C(=O)NCC#N)cc1C(=O)Nc1ccc(F)c(F)c1 [Compound 30]"
  QUANTITY: "CC50"
  REPORTED MEASUREMENT: "> 100 µM"
- COMPOUND: "Cc1c(C(=O)C(=O)NCc2ccccn2)c(C)n(C)c1C(=O)Nc1ccc(F)c(F)c1 [Compound 47]"
  QUANTITY: "CC50"
  REPORTED MEASUREMENT: "35 µM"
- COMPOUND: "Cn1cc(C(=O)C(=O)N2CCOCC2)cc1C(=O)Nc1ccc(F)c(F)c1 [Compound 31]"
  QUANTITY: "CC50"
  REPORTED MEASUREMENT: "93.9 µM"
- COMPOUND: "Cc1c(C(=O)C(=O)NCC#Cc2nccn2C)c(C)n(C)c1C(=O)Nc1ccc(F)c(F)c1 [Compound 83]"
  QUANTITY: "CC50"
  REPORTED MEASUREMENT: "42 µM"

----------
- TEST PROTOCOL: Cellular toxicity assay in CEM cells
- Format: cell-based
- ASSAY SETUP: human, CEM lymphoblastoid cells, read-out: Cytotoxicity

- MOLECULE: "Cn1cc(C(=O)C(=O)NCC#N)cc1C(=O)Nc1ccc(F)c(F)c1 [Compound 30]"
  CC50: "> 100 µM"
- MOLECULE: "C#CCNS(=O)(=O)c1cc(C(=O)Nc2ccc(F)c(F)c2)n(C)c1 [Compound 17]"
  CC50: "53 µM"
- MOLECULE: "Cc1c(C(=O)C(=O)NCc2nn[nH]n2)c(C)n(C)c1C(=O)Nc1ccc(F)c(F)c1 [Compound 82]"
  CC50: "> 100 µM"
- MOLECULE: "Cc1c(C(=O)C(=O)NCc2ccccn2)c(C)n(C)c1C(=O)Nc1ccc(F)c(F)c1 [Compound 47]"
  CC50: "47 µM"
- MOLECULE: "C#CCNC(=O)C(=O)c1c(C)c(C(=O)Nc2ccc(F)c(C#N)c2)n(C)c1C [Compound 7b]"
  CC50: "> 100 µM"
- MOLECULE: "Cc1c(C(=O)C(=O)N2CCN(C)CC2)c(C)n(C)c1C(=O)Nc1ccc(F)c(F)c1 [Compound 44]"
  CC50: "17 µM"
- MOLECULE: "C#CCNC(=O)C(=O)c1c(C)c(C(=O)Nc2ccccc2)n(C)c1C [Compound 58]"
  CC50: "> 100 µM"
- MOLECULE: "C=CCNC(=O)C(=O)c1cc(C(=O)Nc2ccc(F)c(F)c2)n(C)c1 [Compound 25]"
  CC50: "> 100 µM"
- MOLECULE: "Cn1cc(C(=O)C(=O)NOC2CCCC2)cc1C(=O)Nc1ccc(F)c(F)c1 [Compound 27]"
  CC50: "37.9 µM"
- MOLECULE: "Cc1c(C(=O)C(=O)Nc2ccccn2)c(C)n(C)c1C(=O)Nc1ccc(F)c(F)c1 [Compound 43]"
  CC50: "50 µM"
- MOLECULE: "C#CCNC(=O)C(=O)c1c(C)c(C(=O)Nc2ccc(OC(F)(F)F)cc2)n(C)c1C [Compound 54]"
  CC50: "4 µM"
- MOLECULE: "Cc1c(C(=O)C(=O)NCC#N)c(C)n(C)c1C(=O)Nc1ccc(F)c(F)c1 [Compound 81]"
  CC50: "33 µM"
- MOLECULE: "Cn1cc(C(=O)C(=O)Nc2ccccc2)cc1C(=O)Nc1ccc(F)c(F)c1 [Compound 28]"
  CC50: "> 100 µM"
- MOLECULE: "C#CCNC(=O)C(=O)c1c(C)c(C(=O)Nc2ccc(F)c(F)c2)n(C)c1C [Compound 7a]"
  CC50: "> 100 µM"
- MOLECULE: "C#CCNC(=O)C(=O)c1c(C)c(C(=O)Nc2cccc(OC(F)(F)F)c2)n(C)c1C [Compound 55]"
  CC50: "38 µM"
- MOLECULE: "C#CCNC(=O)C(=O)c1c(C)c(C(=O)NC2(c3ccc(F)c(F)c3)CC2)n(C)c1C [Compound 57]"
  CC50: "> 100 µM"
- MOLECULE: "Cc1c(C(=O)C(=O)Nc2nccs2)c(C)n(C)c1C(=O)Nc1ccc(F)c(F)c1 [Compound 78]"
  CC50: "15 µM"
- MOLECULE: "CCN(CC)C(=O)C(=O)c1c(C)c(C(=O)Nc2ccc(F)c(F)c2)n(C)c1C [Compound 45]"
  CC50: "36 µM"
- MOLECULE: "C#CCNC(=O)C(=O)c1c(C)c(C(=O)Nc2ccc(F)c(Cl)c2)n(C)c1C [Compound 66]"
  CC50: "52 µM"
- MOLECULE: "C#CCNC(=O)C(=O)c1c(C)c(C(=O)NC(C)(C)c2ccc(F)c(F)c2)n(C)c1C [Compound 56]"
  CC50: "> 100 µM"
- MOLECULE: "Cc1c(C(=O)C(=O)NCc2nccn2C)c(C)n(C)c1C(=O)Nc1ccc(F)c(F)c1 [Compound 48]"
  CC50: "27 µM"
- MOLECULE: "Cc1c(C(=O)C(=O)NCC#Cc2nccn2C)c(C)n(C)c1C(=O)Nc1ccc(F)c(F)c1 [Compound 83]"
  CC50: "4 µM"

Attribution: patent US10752584B2
